Source listed as patent US20180044415A1.

TESTED_SYSTEM: T1, human DLL3 (immobilized human DLL3 or h293-hDLL3 cells) (human, UniProt Q9NYJ7 27-492, limits assumed)
T1 construct: the sentence says 'immobilized human DLL3 or h293-hDLL3 cells'
T1 sequence: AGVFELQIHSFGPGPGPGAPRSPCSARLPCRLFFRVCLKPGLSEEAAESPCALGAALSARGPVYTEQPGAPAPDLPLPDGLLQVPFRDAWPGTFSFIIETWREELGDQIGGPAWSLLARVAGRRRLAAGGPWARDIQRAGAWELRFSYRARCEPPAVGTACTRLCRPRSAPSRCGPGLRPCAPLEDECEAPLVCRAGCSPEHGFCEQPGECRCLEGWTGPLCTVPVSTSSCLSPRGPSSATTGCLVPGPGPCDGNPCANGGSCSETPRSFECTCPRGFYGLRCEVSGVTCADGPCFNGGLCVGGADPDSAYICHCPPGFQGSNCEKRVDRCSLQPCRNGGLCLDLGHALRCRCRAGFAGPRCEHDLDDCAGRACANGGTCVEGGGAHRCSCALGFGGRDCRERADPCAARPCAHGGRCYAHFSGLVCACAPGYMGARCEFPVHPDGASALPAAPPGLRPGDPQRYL
ASSAY_DETAILS: hybridoma screening on immobilized human DLL3 or on h293-hDLL3 cells
VALUE_TYPE: binding result

Query block: Quick one: binding result for SC16.137 (antibody, V domains shown, murine mAb; variable regions only) VH: EVQLVESGGDLVKPGGSLKLSCAASGFTFSSYGMSWVRQTPDKRLEWVATISSGGSYTYYPDSVKGRFTISRDNAKNTLYLQMSSLKSEDTAMYYCARRRADAMDYWGQGTSVTVSS VL: QIVLTQSPAIMSASLGEEITLTCSASSSVSYMHWYQQKSGTSPKLLIYSTSNLASGVPSRFSGSGSGTFYSLTISSVEAEDAADYYCHQWSSYHTFGGGTKLEIKR ?
Result block: binds

Query block: Quick one: binding result for SC16.147 (antibody, V domains shown, murine mAb; variable regions only) VH: QIQLVQSGPELTKPGETVKISCKASGYTFTDYSLHWVKQALGKGLKWMGWINTETGEPAYADDFKGRFAFSLETSASTAYLQINDLKNEDTTTYFCGIYDGYAMDYWGQGTSVTVSS VL: DIQMTQTASSLSASLGDRVTISCRASQDINNYLNWYQQKPDGTVKLLIYYTSRLHSGVPSRFSGSGSGTDYSLTISILEQEDIATYFCQQGDTLPWTFGGGTKLEIK ?
Result block: binds
